Could you please report measured pIC50 for the items listed next?
Test system: MOLM-13 cells
protocol_text: Test 2: inhibition of cell proliferation, MOLM-13
Type: cell-based
measurement_setup: Homo sapiens, cultured 7 days, PrestoBlue
Answers are plain numbers, as −log10 of the molar value.

compound	value_type	endpoint_value
CC(C)N(C(=O)c1cc(F)ccc1Oc1cncnc1N1CC2(CCN(C(=O)[C@H]3N[C@H]4CC[C@@H]3[C@@H](F)[C@H]4CC3CC3)CC2)C1)C(C)C [Example 14]	pIC50	7.40

Now look at this one.
Entry C=C1C[C@@H]2CC[C@H]1[C@@H](C(=O)N1CC3(C1)CN(c1ncncc1Oc1ccc(F)cc1C(=O)N(C(C)C)C(C)C)C3)N2 [Example 7] under MOLM-13 cells had pIC50 of 7.52

---

target_or_system: Menin-MLL binding (His-Menin1-615, MLL1-172-FLAG) (Homo sapiens (Human))
Sequence (O00255 other isoform, or with tags, fused parts or gaps): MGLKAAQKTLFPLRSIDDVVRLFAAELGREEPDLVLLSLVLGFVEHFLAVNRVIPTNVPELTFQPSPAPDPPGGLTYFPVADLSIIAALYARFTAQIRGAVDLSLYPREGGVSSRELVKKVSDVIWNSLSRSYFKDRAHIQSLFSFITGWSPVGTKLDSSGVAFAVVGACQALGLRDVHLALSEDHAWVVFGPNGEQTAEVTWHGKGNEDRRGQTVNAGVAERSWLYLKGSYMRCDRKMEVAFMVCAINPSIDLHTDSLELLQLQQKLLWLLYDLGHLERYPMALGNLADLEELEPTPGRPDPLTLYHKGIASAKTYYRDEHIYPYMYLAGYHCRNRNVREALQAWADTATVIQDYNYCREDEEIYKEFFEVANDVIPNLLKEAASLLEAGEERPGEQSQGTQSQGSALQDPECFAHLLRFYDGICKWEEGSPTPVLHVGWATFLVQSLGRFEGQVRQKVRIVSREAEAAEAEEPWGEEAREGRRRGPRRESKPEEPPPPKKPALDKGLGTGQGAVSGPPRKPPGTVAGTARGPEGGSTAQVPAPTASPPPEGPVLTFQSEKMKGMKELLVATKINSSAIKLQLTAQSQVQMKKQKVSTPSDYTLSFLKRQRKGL
protocol_text: Test 1: inhibition of the Menin-MLL binding (HTRF)
measurement_setup: summary of Test 1 table
value_type: Menin-MLL binding inhibition activity (in words)

smiles	endpoint_value
CC(C)N(C(=O)c1cc(F)ccc1Oc1cncnc1N1CC2(CN(C(=O)[C@H]3N[C@H]4CC[C@@H]3C[C@H]4CC3CC3)C2)C1)C(C)C	potent
CC(C)N(C(=O)c1cc(F)ccc1Oc1cncnc1N1CC2(CN(C(=O)[C@H]3N[C@H]4CC[C@@H]3C[C@@H]4CC3CC3)C2)C1)C(C)C	particularly potent
CC(C)N(C(=O)c1cc(F)ccc1Oc1cncnc1N1CC2(CCN(C(=O)[C@H]3N[C@H]4CC[C@@H]3C[C@@H]4CC3CC3)CC2)C1)C(C)C	potent
CC(C)N(C(=O)c1cc(F)ccc1Oc1cncnc1N1CC2(CCN(C(=O)[C@H]3N[C@H]4CC[C@@H]3C[C@H]4CC3CC3)CC2)C1)C(C)C	potent

Now look at this one.
Please fill in: Menin-MLL binding inhibition activity (in words) reported for CC(C)N(C(=O)c1cc(F)ccc1Oc1cncnc1N1CC2(CN(C(=O)[C@H]3N[C@H]4CC[C@@H]3[C@@H](F)C4)C2)C1)C(C)C = particularly potent
